# credit: the supplement of paper PMC9233669

Test system: biotinyl-Val-oxazolone
Experiment: self-aminoacylation, catalytic enhancement (BVO) (fold over background); higher = more active; k-Seq, kA / k0A0; sequences stand for … in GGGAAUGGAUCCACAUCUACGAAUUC…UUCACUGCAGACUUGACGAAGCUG
Fewer inactive variants are shown than the library holds.
A collection of sequences and their measured self-aminoacylation
// keep it numeric: no unit symbol after the value

Example entries begin here.
GUACUUCAAACAAUCGGUCUU [Fam1A.1 aminoacylation ribozyme variant]; 1.3
CUACUACAAAGAAUCGGUCUG [Fam1A.1 aminoacylation ribozyme variant]; 0.54
AAGUUUGCUAAUCGUCGUAAG [Fam3.1 aminoacylation ribozyme variant]; 0.947

[ask] Name the recorded self-aminoacylation of the item GUACUUCAAACAAUCGUUCUG [Fam1A.1 aminoacylation ribozyme variant] in your answer.
[reply] 1.13

[ask] Read the entry CUACCGCAAACAAUCGGUCUG [Fam1A.1 aminoacylation ribozyme variant] and write its reported self-aminoacylation.
[reply] 0.961

[ask] Could you please provide reported self-aminoacylation for AUUCACCCAGGUCAUCGGGGG [Fam2.2 aminoacylation ribozyme variant] ? Thanks!
[reply] 1.6

[ask] Name the recorded self-aminoacylation of the item CCACACUUCAAGGAAUCGGUA [Fam1B.1 aminoacylation ribozyme variant] in your answer.
[reply] 1.18

[ask] Kindly indicate its recorded self-aminoacylation. Item: AAGAUUGCUAAUGGUCGCAAG [Fam3.1 aminoacylation ribozyme variant]
[reply] 1.14
